Source listed as ChEMBL document CHEMBL1154934.

# test: Clearance in rat at 2 mg/kg, iv
# Type: ADME, organism-based
# Set-up: dose 2 mg/kg, route intravenous
# particulars: in vivo
property.name: clearance (mL/min/kg)

{"cpd.smiles": "C[C@H]1CN(C(=O)c2ccc(-c3ccccc3F)cc2)CCN1C(=O)c1ccc2cc[nH]c2c1", "test.result": 35}

----------
# test: Fraction unbound in rat plasma
# Format: ADME, cell-free

{"cpd.smiles": "C[C@H]1CN(C(=O)c2ccc(-c3ccncc3)c(F)c2)CCN1C(=O)c1ccc2cc[nH]c2c1", "fraction unbound": 0.04}
